Test system: U-251
protocolDescription: NCI tumour cell line growth inhibition, 48 h
The source made the active and inactive calls. Cut-off read from the data, not from the text of the source: active = GI50 up to about 1.1 µM and inactive = higher.
Outcomes: active, inactive

| compound | measuredTarget | label |
| --- | --- | --- |
| c1ccc(CSC(SCc2ccccc2)c2cccc3ccccc23)cc1 | U-251 | inactive |
| Cc1cc(N(CCCCl)CCCCl)ccc1/C=N/c1cccc(Cl)c1 | U-251 | inactive |
| CC1=CC(=O)c2ccc3c4ccccc4n(C)c3c2C1=O | U-251 | inactive |
| O=C(O)CCC(/N=C(\C(=N\C(CCC(=O)O)C(=O)O)c1ccccc1)c1ccccc1)C(=O)O (centres undefined) | U-251 | inactive |
| Cc1cc(C)nc(NS(=O)(=O)c2ccc(NC(=O)c3ccc(Cl)c4c(Nc5ccc(S(=O)(=O)Nc6cc(C)on6)cc5)c5ccccc5nc34)cc2)n1 | U-251 | inactive |
| Cc1ccc(C(=O)OC[C@H]2CC[C@@H](n3cc(N(C)C4CCCCC4)c(=O)[nH]c3=O)O2)cc1 | U-251 | inactive |
| Cc1nc2c(nc1C)-c1c(c3c(n1C)C(=O)CCC3)C(=O)C2=O | U-251 | active |
| Cc1ccc(C(=O)C#Cc2cnc(O)nc2O)cc1 | U-251 | inactive |
| O=[N+]([O-])c1ccc(OP(=O)(O)OCC2OC(CP(=O)(O)O)C(O)C2O)cc1 (centres undefined) | U-251 | inactive |

====

Reported GI50 values for the following compounds.
Tested on: PC-3
protocolDescription: NCI tumour cell line growth inhibition, 48 h
The source made the active and inactive calls. Cut-off read from the data, not from the text of the source: active = GI50 up to about 1.1 µM and inactive = higher.
assayEndpoint: GI50

| compound | measuredTarget | assayEndpoint | valueObserved |
| --- | --- | --- | --- |
| COc1cccc2nc3c(C(=O)NCCN(C)C)cccc3cc12 | PC-3 | GI50 | 2.34 µM (inactive) |
| O=C(/C=C/c1ccc(O)c(O)c1)NC(COC(=O)/C=C/c1ccc(O)c(O)c1)C(=O)O (stereo unspecified) | PC-3 | GI50 | > 100 µM (inactive) |
| Cc1ccc(-c2cc(-c3ccc(Cl)cc3)nc(/N=C3\C(=O)N(CN(C)C)c4ccccc43)n2)cc1 | PC-3 | GI50 | 50.9 µM (inactive) |
| COC(CNC(=O)CNC(=O)c1ccc(C(F)(F)F)cc1)OC | PC-3 | GI50 | > 100 µM (inactive) |
| CCOC(=O)c1c(NC(=O)c2ccccc2)sc2c1CCC2 | PC-3 | GI50 | > 100 µM (inactive) |
| COC(=O)C1(Cc2ccccc2C)Cc2ccc(C)cc2C1=O (stereo unspecified) | PC-3 | GI50 | 25.7 µM (inactive) |
| O=c1c2ccccc2nc(-c2ccccc2)n1O | PC-3 | GI50 | > 100 µM (inactive) |
| CCN1C(=O)c2ccccc2C1(O)c1ccc(Cl)cc1 (stereo unspecified) | PC-3 | GI50 | 24.7 µM (inactive) |
| Nc1nc(Cl)cc(NCC2(CO)CC=CC2)n1 | PC-3 | GI50 | > 100 µM (inactive) |
| COc1ccc(-c2cn3c(n2)sc2cc(C)ccc23)cc1 | PC-3 | GI50 | 14.8 µM (inactive) |
| Cc1cn(S(=O)(=O)c2ccccc2)c2c(OCc3ccccc3)cc([N+](=O)[O-])cc12 | PC-3 | GI50 | 32.9 µM (inactive) |

====

System: XF498
protocolDescription: NCI tumour cell line growth inhibition, 48 h
The source made the active and inactive calls. Rule as the data show it: active = GI50 up to about 1.1 µM and inactive = higher.
Possible outcomes: yes (1) for active, no (0) for inactive

| compound | measuredTarget | label |
| --- | --- | --- |
| CCOC(=O)/C=C(/CN1C(=O)c2ccccc2C1=O)c1ccccc1 | XF498 | no (0) |
| C=CCc1cc(OC)c(O)c(C(=O)/C=C/c2ccc(OC)c(OC)c2)c1 | XF498 | no (0) |
| CN(/N=C\c1ccnc2ccccc12)c1ccccc1 | XF498 | no (0) |
| CCC12C=CCN(CCc3c([nH]c4ccccc34)/C=C\1)C2 (stereo unspecified) | XF498 | no (0) |
| COc1ccc(C(=O)C(CC2C(=O)NC(=O)NC2=O)c2ccc(OC)cc2)cc1 (stereo unspecified) | XF498 | no (0) |
| CN1CC(C(=O)C2C(=O)c3ccccc3C2=O)C(=O)C(=O)C(C(=O)C2C(=O)c3ccccc3C2=O)C1 (stereo unspecified) | XF498 | no (0) |
| CC1=CC(=C(c2ccc(N)c(C)c2)c2ccc(N)c(C)c2)C=CC1=N | XF498 | no (0) |
| COC(=O)[C@@H]1CCCCC[C@H]2C(CO)=C(C)C(=O)C12 (stereo partly specified) | XF498 | no (0) |
| O=C(CC1(O)C(=O)Nc2c(Cl)ccc(Cl)c21)c1ccc(F)cc1 (stereo unspecified) | XF498 | no (0) |
| O=C1NC(=O)C(=Cc2c3ccccc3cc3ccccc23)C(=O)N1 | XF498 | no (0) |
| C[N+](C)(C)C1CC([N+](C)(C)C)C2c3ccccc3C21 (stereo unspecified) | XF498 | no (0) |
| N#CCC(=O)N/N=C(/C(=O)Nc1ccccc1)C1C(=O)N(c2ccccc2)N=C1N (stereo unspecified) | XF498 | no (0) |
| Nc1nc(SCCC/C=C/B(O)O)nc2c1ncn2C1OC(COP(=O)(O)O)C(O)C1O (stereo unspecified) | XF498 | no (0) |
| C=CCc1cc(-c2cc(CC=C)c(O)c(CN(CCCl)CCCl)c2)cc(CN(CCCl)CCCl)c1O | XF498 | no (0) |
| CC1COS(=O)N1c1ccccc1 (stereo unspecified) | XF498 | no (0) |
| CC1(OCc2ccccc2)C(=O)N2C1NCC2(C)C (stereo unspecified) | XF498 | no (0) |
| COc1cc(C2c3cc4c(cc3[C@@H](NCCN(C)C)C3COC(=O)[C@H]23)OCO4)cc(OC)c1O (stereo partly specified) | XF498 | yes (1) |
| CO[C@@]1(c2ccccc2)O[C@H]2OCCC2[C@H]1c1ccc(Cl)cc1 (stereo partly specified) | XF498 | no (0) |
| C/C(CN1C(=O)c2ccccc2C1=O)=N\NS(=O)(=O)c1cccc(C(=O)O)c1 | XF498 | no (0) |
| COc1c(OC(C)=O)c(OC(C)=O)cc2c1-c1ccc(OC)c(=O)cc1C(NC(C)=O)CC2 (stereo unspecified) | XF498 | yes (1) |
| C/C(=C\COc1ccc2ccc(=O)oc2c1)C1=CC(=O)C(C)(C)O1 [GEIPARVARIN] | XF498 | no (0) |
| Cc1c(-c2cc(-c3ccccc3)n[nH]c2=O)c2ccccc2n1C | XF498 | no (0) |
| CC1=NN(C(=O)Nc2ccccc2)C(=O)C2CCC(=O)N12 (stereo unspecified) | XF498 | no (0) |
| CC(=O)OCC(OC(C)=O)C(OC(C)=O)C(OC(C)=O)C(=O)CNn1c(-c2ccc(C)cc2)nc2ccccc2c1=O (stereo unspecified) | XF498 | no (0) |
| c1ccc(SC(Sc2ccccc2)=C2CCC2)cc1 | XF498 | no (0) |
| N#Cc1ccccc1NC(=O)c1ccccc1 | XF498 | no (0) |

====

Tested on: LXFL 529
protocolDescription: NCI tumour cell line growth inhibition, 48 h
Calls of active or inactive are those of the source. No stated cut-off is given here; in the data, active = GI50 up to about 1.1 µM and inactive = higher.
GI50 values, listed per item

| compound | GI50 |
| --- | --- |
| CCOC(=O)COc1cccc2occc(=O)c12 | > 100 µM (inactive) |
| CCCNC(=O)C(C)(Cl)C(=O)c1ccccc1O (stereo unspecified) | > 100 µM (inactive) |
| N#CCC(=O)N/N=C(/C(=O)Nc1ccccc1)C1C(=O)N(c2ccccc2)N=C1N (stereo unspecified) | > 100 µM (inactive) |
| N#CC1(CCCI)CCCC1 | 23.2 µM (inactive) |
| NC(=O)c1nc(-c2ccc(Cl)c(Cl)c2)nc2ccccc12 | > 26.4 µM (inactive) |
| COc1cc(C(=O)C/C(CCC(=O)Nc2ccc(Cl)cc2Cl)=N/NC(=O)C(=O)NN)ccc1O | > 100 µM (inactive) |
| Cc1c2cc(Cl)ccc2n2c(=O)c3ccccc3[nH]c(=O)c12 | > 100 µM (inactive) |
| OCC1OC(n2ccc3cnccc32)CC1O (stereo unspecified) | > 100 µM (inactive) |
| Cc1cc(C)nc(NS(=O)(=O)c2ccc(NC(=O)c3ccc(Cl)c4c(Nc5ccc(S(=O)(=O)Nc6cc(C)on6)cc5)c5ccccc5nc34)cc2)n1 | 16.8 µM (inactive) |
| Cc1nn(-c2ccccc2)c2nc(N3CCOCC3)nnc12 | 53.3 µM (inactive) |
| O=C1C[C@@H]2[C@@H](C=CC23CC3)N1O | > 100 µM (inactive) |
| CC(C)N(C(=O)C12C3C4C1(I)C1C2C3(I)C41C(=O)N(C(C)C)C(C)C)C(C)C (stereo unspecified) | > 67.6 µM (inactive) |
| O=C1NC(=O)C(C(=O)C(=O)Nc2cccc(C(F)(F)F)c2)C(=O)N1 | > 100 µM (inactive) |
| Clc1c(Cl)c2c(Cl)c(Cl)c1C[PH](c1ccccc1)(c1ccccc1)CC[PH](c1ccccc1)(c1ccccc1)Cc1c(Cl)c(Cl)c(c(Cl)c1Cl)C[PH](c1ccccc1)(c1ccccc1)CC[PH](c1ccccc1)(c1ccccc1)C2 | 2.15 µM (inactive) |
| Cc1c2ccnc(C(N)=O)c2c(C)c2c1[nH]c1ccccc12 | 5.69 µM (inactive) |
| Cc1cc(N(CCC#N)S(=O)(=O)c2ccccc2)ccc1/C=N\c1cccc(C(=O)O)c1 | > 100 µM (inactive) |
| CCCCCNC(=O)C1C(=O)N(CCCCC)C(=O)/C1=N\N (stereo unspecified) | 41.2 µM (inactive) |
| Clc1cc(Cl)c2ns[s+]c2c1Cl | > 100 µM (inactive) |
| CCCCCCCCCCCCCC(=O)CBr | 3.72 µM (inactive) |
| O=C(O/N=C1/CCCC/C1=C\c1ccccc1)c1ccccc1 | 28.4 µM (inactive) |
| CN(C)c1n/c(=N/c2ccc(/N=c3\nc(N(C)C)ss3)cc2)ss1 | > 33.5 µM (inactive) |
| CC(=O)OC(C)C1C2=C(C(=O)CC1(C)O)C(=O)c1c(ccc(-c3ccc4c(c3O)C(=O)C3=C(C4=O)C(C(C)OC(C)=O)C(C)(O)CC3=O)c1O)C2=O (stereo unspecified) | 0.428 µM (active) |
| O=c1[nH]cc(COCC(O)CO)c(=O)[nH]1 (stereo unspecified) | > 100 µM (inactive) |
| COc1ccc(/C=C2\N=C(c3ccccc3)N(Nc3nnc(NN4C(=O)/C(=C/c5ccc(OC)cc5)N=C4c4ccccc4)c4ccccc34)C2=O)cc1 | 44.4 µM (inactive) |
| CSC1C=C(C(C)C)CCC1(C)SC (stereo unspecified) | 18.4 µM (inactive) |
| C=CCC1C(=O)CC2(C)CC(=O)C(CC=C)C12C (stereo unspecified) | > 100 µM (inactive) |
